# protocol.details: Hydrodynamic diameter and colloidal stability of aggregates by dynamic light scattering
# Assay type: physicochemical
# experimental.context: 2.5 μM in PBS from DMSO stock, 37 °C
readout: zeta potential

The recorded zeta potential for entry CC1=C(/C=C/C(C)=C/C=C/C(C)=C/C=C/C=C(C)/C=C/C=C(C)/C=C/C2=C(C)C[C@@H](OC(=O)CCC(=O)O)CC2(C)C)C(C)(C)C[C@H](OC(=O)CCC(=O)O)C1 [Compound 7, Zeaxanthin bissuccinate] equals 17.9 mV

The recorded zeta potential for entry COc1ccc2[nH]cc(CCNC(=O)CNC(=O)CCC(=O)O[C@@H]3CC(C)=C(/C=C/C(C)=C/C=C/C(C)=C/C=C/C=C(C)/C=C/C=C(C)/C=C/C4C(C)=C[C@@H](OC(=O)CCC(=O)NCC(=O)NCCc5c[nH]c6ccc(OC)cc56)CC4(C)C)C(C)(C)C3)c2c1 (stereo partly shown) [Compound 16, Lutein-bismelatonin conjugate] equals −27.5 mV

The recorded zeta potential for entry COc1ccc2[nH]cc(CCNC(=O)CNC(=O)CCC(=O)O[C@@H]3CC(C)=C(/C=C/C(C)=C/C=C/C(C)=C/C=C/C=C(C)/C=C/C=C(C)/C=C/C4=C(C)C[C@@H](OC(=O)CCC(=O)NCC(=O)NCCc5c[nH]c6ccc(OC)cc56)CC4(C)C)C(C)(C)C3)c2c1 [Compound 14, Zeaxanthin-bismelatonin conjugate] equals −0.4 mV

The recorded zeta potential for entry CC1=C(/C=C/C(C)=C/C=C/C(C)=C/C=C/C=C(C)/C=C/C=C(C)/C=C/C(=O)[C@]2(C)C[C@@H](OC(=O)CCC(=O)O)CC2(C)C)C(C)(C)C[C@H](OC(=O)CCC(=O)O)C1 [Compound 9, Capsanthin bissuccinate] equals 51.3 mV
